- protocol-description: drug combination growth inhibition, ovarian cancer – cell-based, oncology-focused library, rucaparib conditional, profiling panel (AID 1508598)
- condition-summary: patient-derived ovarian cancer cells, CellTiter-Glo viability, 144 h; at 0.0195 µM; OCI-P5x cells; with rucaparib 20 µM; stronger effect = lower value; 100% = cells with rucaparib alone
Collected viability values appear next to each entry.
assay-readout: viability (%)

smiles-string: COc1cc(Nc2ncc3c(n2)-c2ccc(Cl)cc2C(c2c(F)cccc2OC)=NC3)ccc1C(=O)O
obs-value: 106
//
smiles-string: CO[C@@H](C(=O)N1Cc2[nH]nc(NC(=O)c3ccc(N4CCN(C)CC4)cc3)c2C1)c1ccccc1
obs-value: 95.5
//
smiles-string: CC(C)n1nc(-c2ccc3oc(N)nc3c2)c2c(N)ncnc21
obs-value: 56.8
//
smiles-string: COc1cc2c(Oc3ccc4[nH]c(C)cc4c3F)ncnc2cc1OCCCN1CCCC1
obs-value: 97.8
//
smiles-string: Fc1cc(-c2cccc3ncc(-c4cnn(C5CCNCC5)c4)nc23)cc(F)c1CN1CCOCC1
obs-value: 88.8
//
smiles-string: COc1cc(Nc2nc3ccccc3nc2NS(=O)(=O)c2ccc(NC(=O)c3ccc(C)c(OC)c3)cc2)cc(OC)c1
obs-value: 101
//
smiles-string: O=C(Nc1cccc(Cl)c1)Nc1ncc(CCNc2ncnc3ccsc23)s1
obs-value: 99.4
//
smiles-string: Oc1cccc(-c2nc(N3CCOCC3)c3oc4ncccc4c3n2)c1
obs-value: 113
//
smiles-string: Cc1nc(N)sc1-c1ccnc(Nc2ccc(N3CCOCC3)cc2)n1
obs-value: 116

* * *

- protocol-description: CRL1545 cell growth, single agent and combined, cisplatin and BGB IC20 combos (AID 1671464);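 also: cells exposed to compound for 96 hours before readout; 0% = vehicle DMSO and 100% = high DMSO killing control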
- condition-summary: CRL1545 osteosarcoma cells, measured here: with cisplatin IC20 combination, at 0.5 µM, stronger effect = higher value
Everything with inhibition lower than 10% is 0 (no); everything else, including exactly 10%, is 1 (yes).

compound: NCCOc1cc(C(=O)Nc2cc(OCCN)c3ccccc3n2)nc(C(=O)Nc2cc(OCCN)c3ccccc3n2)c1
label-value: 1 (yes)

compound: O=C(/C=C/c1ccc(CN(CCO)CCc2c[nH]c3ccccc23)cc1)NO
label-value: 1 (yes)

compound: C[C@]12CCCN1CC1=NNC(=O)c3cc(F)cc4[nH]c2c1c34
label-value: 1 (yes)

compound: COc1ccc(C(=O)CC2(O)C(=O)Nc3c(Cl)ccc(Cl)c32)cc1 (stereo not given)
label-value: 0 (no)

* * *

Recorded inhibition for the following compounds
- protocol-description: RCMB18 cell growth, single agent and combined, cisplatin and BGB IC40 combos (AID 1671462);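 also: cells exposed to compound for four days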
- condition-summary: RCMB18 medulloblastoma cells, measured here: BGB IC40 combination, at 0.05 µM, stronger effect = higher value

compound: C[C@]12CCCN1CC1=NNC(=O)c3cc(F)cc4[nH]c2c1c34
inhibition [%]: -15.1
--
compound: O=C(O)[C@H](Cc1c[nH]c2ccccc12)N1C(=O)c2ccccc2C1=O
inhibition [%]: -15.4
--
compound: COc1ccc(C(=O)C2CCN(CC(=O)N(Cc3nc4c(c(=O)[nH]3)COCC4)CC3CC3)CC2)cc1
inhibition [%]: -3.95
--
compound: CC(C)OC(=O)[C@H](C)N[P@](=O)(OC[C@H]1O[C@@H](n2ccc(=O)[nH]c2=O)[C@](C)(F)[C@@H]1O)Oc1ccccc1
inhibition [%]: -14.6
--
compound: O=c1[nH]c([C@@H]2CCCN2)nc2c1oc1ccc(Cl)cc12
inhibition [%]: 3.23
--
compound: O=C(O)CO.[NH2-].[NH2-].[Pt+2]
inhibition [%]: -28.2
--
compound: c1cc(Nc2cc(C3CC3)[nH]n2)nc(Nc2ccc3nc[nH]c3c2)n1
inhibition [%]: 22.4
--
compound: NC1CCC(N[C@@H]2C[C@H]2c2ccccc2)CC1 (some centres undefined)
inhibition [%]: -13.6
--
compound: Nc1nc(OCc2cc(Br)cs2)c2[nH]cnc2n1
inhibition [%]: 1.72
--
compound: CC(=O)[C@]1(N)Cc2c(O)c3c(c(O)c2[C@@H](O[C@H]2C[C@H](O)[C@H](O)CO2)C1)C(=O)c1ccccc1C3=O
inhibition [%]: -27.7
--
compound: O=c1[nH]cnc2ccccc12
inhibition [%]: -1.26
--
compound: COc1cc2ncnc(-n3nc(-c4ccccn4)nc3N)c2cc1OC
inhibition [%]: -31.7
--
compound: Nc1nc2n[nH]nc2c(=O)[nH]1
inhibition [%]: -43.3
--
compound: N=C1CCCN1Cc1[nH]c(=O)[nH]c(=O)c1Cl
inhibition [%]: 22
